Value source: ChEMBL document CHEMBL1153127

molecular target: Cyclin-dependent kinase 4/cyclin D1 (Homo sapiens); experiment: Inhibition of CDK4/Cyclin D1 by FRET assay
Sequence (P11802 whole entry, one chain of several): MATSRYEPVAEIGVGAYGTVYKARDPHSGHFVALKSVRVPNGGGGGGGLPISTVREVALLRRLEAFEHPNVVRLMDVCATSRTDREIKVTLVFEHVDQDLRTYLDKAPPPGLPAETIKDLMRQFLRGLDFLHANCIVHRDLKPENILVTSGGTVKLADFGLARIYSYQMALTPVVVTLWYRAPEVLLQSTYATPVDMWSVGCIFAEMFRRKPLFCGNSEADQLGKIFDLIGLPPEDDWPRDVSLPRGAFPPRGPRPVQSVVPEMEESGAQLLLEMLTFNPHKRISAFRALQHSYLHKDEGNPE
readout name: IC50 (µM)
Give bare numbers, in µM.

COc1cc(NCCN(CC(C)C)CC(C)C)c2ncc(C)cc2c1
128

Kindly consider the entry below.
Return reported IC50. Input compound: `COc1cc(NCCCN(CCC(C)C)CCC(C)C)c2ncccc2c1` 162

====

biological target: CDK6/cyclin D1 (Homo sapiens, UniProt Q00534); test: Inhibition of CDK6/Cyclin D1 by FRET assay
Sequence (P24385 whole entry): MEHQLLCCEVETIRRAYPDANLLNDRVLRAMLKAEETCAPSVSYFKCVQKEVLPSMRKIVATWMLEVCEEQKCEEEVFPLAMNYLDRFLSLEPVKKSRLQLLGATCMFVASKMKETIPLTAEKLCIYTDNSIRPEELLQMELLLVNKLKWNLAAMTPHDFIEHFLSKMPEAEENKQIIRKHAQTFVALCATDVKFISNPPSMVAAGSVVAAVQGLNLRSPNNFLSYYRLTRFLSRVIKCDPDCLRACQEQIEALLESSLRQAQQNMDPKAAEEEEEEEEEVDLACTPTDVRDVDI
Sequence (Q00534 whole entry): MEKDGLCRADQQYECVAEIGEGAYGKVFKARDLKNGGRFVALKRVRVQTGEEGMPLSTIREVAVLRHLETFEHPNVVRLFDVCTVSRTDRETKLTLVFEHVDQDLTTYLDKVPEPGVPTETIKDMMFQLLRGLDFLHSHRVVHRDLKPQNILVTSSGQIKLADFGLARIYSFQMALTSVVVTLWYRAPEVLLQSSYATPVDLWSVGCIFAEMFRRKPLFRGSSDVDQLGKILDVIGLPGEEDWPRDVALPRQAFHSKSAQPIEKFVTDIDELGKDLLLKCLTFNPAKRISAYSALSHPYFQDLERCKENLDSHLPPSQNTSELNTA
readout name: pIC50
Answers are plain numbers, as −log10 of the molar value.

Return reported pIC50. Input molecule: `COc1cc(NCCCN(CCC(C)C)CCC(C)C)c2ncccc2c1` 3.49
